Kindly state TGI for each of the entries shown.
System: LOX IMVI melanoma
Assay: NCI tumour cell line growth inhibition, 48 h

INPUT: Recorded TGI for O=C1NC(O)CCN1C1OC(CO)C(O)C1O (stereo not given) , please?
OUTPUT: > 250 µM

INPUT: Can you share its TGI? I mean this molecule: NC(N)=Nc1nc2ccccc2o1
OUTPUT: > 100 µM

INPUT: I am curious: what TGI value has been reported for COC(=O)/C=C/c1cc(OC(C)=O)c2c(c1)C(C(=O)OC)C(c1ccc(OC(C)=O)c(OC(C)=O)c1)O2 (stereo not given) ?
OUTPUT: > 83.3 µM

INPUT: Param item = CNc1nc(N)nc(Nc2ccc(I)cc2)c1N=O ; retrieve measured TGI.
OUTPUT: > 100 µM

INPUT: TGI lookup needed for CNc1cc2oc(=O)cc(C)c2cc1C , thanks.
OUTPUT: > 100 µM

INPUT: I am curious: what TGI value has been reported for O=C(Nc1nc(-c2c[nH]c3ccccc23)cs1)c1n[nH]c(=O)c2ccccc12 ?
OUTPUT: 17.9 µM

INPUT: Name the reported TGI value associated with the molecule CCCCCCn1c(-c2ccc(C(=O)O/N=C(\N)c3ccc4c(c3)OCO4)cc2)nc(-c2ccccc2)c1-c1ccccc1
OUTPUT: 0.329 µM

INPUT: Fill in the blank: the reported TGI of CCOc1ccc(NC(=O)CC2SC(=Nc3ccc(C)cc3C)NC2=O)cc1 (stereo not given) is ____.
OUTPUT: > 100 µM

INPUT: Name the reported TGI value associated with the molecule CCN(C(=O)N[C@@H](C)C(=O)N[C@@H](Cc1ccccc1)C(=O)OC)c1ccccc1
OUTPUT: > 100 µM

INPUT: For the molecule shown here, N#Cc1sc2c(c1OC(=O)c1ccc(C(F)(F)F)cc1)c(=O)n(-c1ccccc1)c(=S)n2-c1ccccc1 , give the reported TGI.
OUTPUT: 59.9 µM

====

Test system: UACC-62 melanoma
Test: NCI tumour cell line growth inhibition, 48 h
Where a SMILES comes first, the peptide text is derived from it. [ ]: non-standard residue; d: D form. The star is where a group is joined. Cbz = O=C(OCc1ccccc1)*; Aib = CC(C)(N)C(=O)O; OBn = c1ccc(CO*)cc1
measured.metric: TGI

INPUT: Tell me the measured TGI of C/C1=C\[C@H](C)C[C@H](C)OC(=O)[C@H](C)NC(=O)[C@@H](Cc2ccc(O)c(Br)c2)N(C)C(=O)[C@H](C)NC(=O)[C@@H](C)C1 , please.
OUTPUT: > 25 µM

INPUT: Need TGI, item Cn1ncc2c(NCc3ccccc3)ncnc21
OUTPUT: > 100 µM

INPUT: Using the record for COc1cccc2c1O/C(=C\c1ccc([N+](=O)[O-])s1)C2=O , report its TGI.
OUTPUT: 3.23 µM

INPUT: I have this compound here, CC(NC(=O)C(C)(C)NC(=O)C(CC(=O)OCc1ccccc1)NC(=O)OCc1ccccc1)C(N)=O (centres undefined) (Cbz-Asp(OBn)-[Aib]-Ala-NH2; configuration not given here) , and I need its recorded TGI.
OUTPUT: > 100 µM

====

Test system: OVCAR-8 ovarian
Assay: NCI tumour cell line growth inhibition, 48 h
measured.metric: TGI

INPUT: Fill blank: measured TGI of the molecule Cc1nc2c(Br)cc(Br)cc2c(=O)n1-c1nnc(-c2cccc(Cl)c2Cl)c(N)n1 is ____.
OUTPUT: 60.7 µM

INPUT: Item CN1Cc2c(nc(-c3ccccc3)c[n+]2[O-])N(C)C1 has what recorded TGI?
OUTPUT: > 100 µM

INPUT: If you can, please state the reported TGI value of N#CC(I)CS(=O)(=O)c1ccccc1 (configuration not stated) .
OUTPUT: 32.2 µM

INPUT: Fill in the blank: the reported TGI of CC1(C)C=CC(=O)C(O)C(C)(C)C1=O (configuration not stated) is ____.
OUTPUT: > 100 µM

INPUT: If you can, please state the reported TGI value of COc1ccc2oc(=N)c(C(=O)Nc3ccccc3)cc2c1 .
OUTPUT: 46 µM

INPUT: Query: TGI; subject: CCN(C(=O)N[C@@H](C)C(=O)N[C@@H](Cc1ccccc1)C(=O)OC)c1ccccc1
OUTPUT: > 100 µM

INPUT: Tell me the measured TGI of O/N=C1\CCCCC1C(NO)c1ccccc1 (configuration not stated) , please.
OUTPUT: > 100 µM

INPUT: What does the data say about its TGI? Entry: CN1CCN(Cc2cc3c(nn2)-c2ccccc2C3=O)CC1
OUTPUT: > 100 µM

INPUT: Quick one: TGI for O=c1onc2n1-c1cc(Cl)ccc1C(=S)N1CSCC21 (configuration not stated) ?
OUTPUT: > 100 µM

INPUT: Quick check: TGI of COC(=O)c1ccccc1CC1Cc2cccc(C)c2C1=O (configuration not stated) ?
OUTPUT: > 100 µM

INPUT: Would you mind telling me what TGI value was observed for Cc1c2c(c(C)n1-c1ccccc1)C(=O)N(CCN1CCN(c3cccc(C(F)(F)F)c3)CC1)C2=O ?
OUTPUT: > 100 µM

INPUT: Dear colleague, I am looking for the recorded TGI of the following molecule: Cc1nc2c(N)ncnc2o1
OUTPUT: > 100 µM
